- System: PI3K-gamma (Homo sapiens, UniProt P48736)
- Sequence (P48736 whole entry, species assumed): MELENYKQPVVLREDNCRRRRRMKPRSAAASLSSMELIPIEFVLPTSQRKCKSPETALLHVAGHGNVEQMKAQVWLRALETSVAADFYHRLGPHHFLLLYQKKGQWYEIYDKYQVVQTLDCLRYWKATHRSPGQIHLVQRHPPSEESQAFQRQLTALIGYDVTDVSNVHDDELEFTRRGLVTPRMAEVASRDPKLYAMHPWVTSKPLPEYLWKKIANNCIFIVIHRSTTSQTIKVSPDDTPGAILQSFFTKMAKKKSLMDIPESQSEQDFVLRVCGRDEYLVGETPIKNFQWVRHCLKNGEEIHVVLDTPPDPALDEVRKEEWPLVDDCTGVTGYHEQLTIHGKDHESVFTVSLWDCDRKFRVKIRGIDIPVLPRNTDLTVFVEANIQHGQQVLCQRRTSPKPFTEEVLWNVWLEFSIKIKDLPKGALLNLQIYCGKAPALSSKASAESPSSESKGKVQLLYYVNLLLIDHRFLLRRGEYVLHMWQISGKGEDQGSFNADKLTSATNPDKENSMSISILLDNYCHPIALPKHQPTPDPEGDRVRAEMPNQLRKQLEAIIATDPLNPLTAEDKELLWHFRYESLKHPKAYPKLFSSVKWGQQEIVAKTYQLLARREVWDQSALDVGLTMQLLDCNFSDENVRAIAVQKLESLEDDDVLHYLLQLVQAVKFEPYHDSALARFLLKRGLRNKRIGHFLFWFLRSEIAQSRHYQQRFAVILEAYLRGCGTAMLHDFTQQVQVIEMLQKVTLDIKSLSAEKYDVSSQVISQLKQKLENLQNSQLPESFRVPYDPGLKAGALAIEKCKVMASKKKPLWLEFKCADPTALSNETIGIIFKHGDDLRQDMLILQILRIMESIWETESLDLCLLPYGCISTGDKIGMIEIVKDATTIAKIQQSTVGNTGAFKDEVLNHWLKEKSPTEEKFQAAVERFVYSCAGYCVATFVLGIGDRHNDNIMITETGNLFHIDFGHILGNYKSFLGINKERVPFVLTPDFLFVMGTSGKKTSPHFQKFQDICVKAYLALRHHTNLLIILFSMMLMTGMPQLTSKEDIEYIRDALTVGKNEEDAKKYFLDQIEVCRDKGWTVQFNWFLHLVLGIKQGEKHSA
- Protocol Text: Kinase inhibition assay, P-33 labelled ATP phosphate transfer, PI3K-gamma
- Type: biochemical
- Stated Conditions: read-out: PI3K-gamma(% Inh at 300 nM)
Attribute Measured: inhibition at 0.3 µM (%)

Use the examples below as a reference point.
Smiles Notation: Cc1nc2c(=O)nc(N3CCOCC3)[nH]c2n1Cc1ccccc1
System: PI3K-gamma (Homo sapiens, UniProt P48736)
inhibition at 0.3 µM, %: 0

Smiles Notation: Cc1nc2c(=O)nc(N3CCOCC3)[nH]c2n1-c1ccc2[nH]ccc2c1
System: PI3K-gamma (Homo sapiens, UniProt P48736)
inhibition at 0.3 µM, %: 7.5

Smiles Notation: Cc1ccc(-n2c(C)nc3c(=O)nc(N4CCOCC4)[nH]c32)cc1
System: PI3K-gamma (Homo sapiens, UniProt P48736)
inhibition at 0.3 µM, %: 1

P. Cc1nc2c(=O)nc(N3CCOCC3)[nH]c2n1-c1ccccc1
Q. Cc1nc2c(=O)nc(N3CCOCC3)[nH]c2n1-c1ccc(F)cc1
## Task Could you check which of P and Q has a smaller value for inhibition at 0.3 µM? Give the chosen item's label as your response.
## Result P
(P: 0%, Q: 3%)

Values were extracted from patent US10174032B2.
